Measurement protocol: Binding constant determination by UV/Vis-absorption titration
Condition parameters: CuSO4, HEPES buffer pH 7.2-7.4, UV 1:1 Bindfit; listed as AVB
Test readout: pKd
Hey, just a heads up that pKd is the negative log base 10 of the concentration in molar.

[in] Hello, please tell me recorded pKd for this one: COc1ccc(C(=O)CC(=O)c2ccc(C(C)(C)C)cc2)cc1
[out] 5.36

====

Measurement protocol: Binding constant determination by UV/Vis-absorption titration
Condition parameters: ZnSO4, HEPES buffer pH 7.2-7.4, UV 1:1 Bindfit; listed as AVB
Test readout: Kd (µM)
Give the value in µM but do not write µM after it.

[in] Fill in reported Kd for this entry: COc1ccc(C(=O)CC(=O)c2ccc(C(C)(C)C)cc2)cc1
[out] 5.9

====

Measurement protocol: Binding constant determination by UV/Vis-absorption titration
Condition parameters: ZnSO4, HEPES buffer pH 7.2-7.4, UV 1:1 Bindfit
Test readout: Kd (µM)
Reply numerically in µM, unit not repeated.

[in] Using the record for COc1ccc(C(=O)CC(=O)c2ccc(C(C)(C)C)cc2)cc1 , state its measured Kd.
[out] 5.92

The reported measurements were obtained from patent US20260102428A1.
